Test system: Colo-205
test description: In vitro proliferation assay (MTT), Colo-205
Format: cell-based
condition description: Homo sapiens, COLO 205; MTT assay; value (SD, n) where given; read-out: Colo-205 Colon (IC50 µM)
Counter-ions that a name gives are not always drawn.
Record form. Attribute: IC50. Fill in for each entry.
Answers are plain numbers, in µM.

Study these solved cases before continuing.
C#CCOC(=O)N1CCC(Nc2nc(N[C@H]3CC[C@H](N)CC3)nc3c2ncn3C2CCCC2)CC1 [compound 102, dihydrochloride]
0.14
N[C@H]1CC[C@H](Nc2nc(NC3CCN(C(=O)c4cnc5ccccc5n4)CC3)c3ncn(C4CCCC4)c3n2)CC1 [compound 4, dihydrochloride]
0.16

Items follow; give IC50 for each.
1. N[C@H]1CC[C@H](Nc2nc(NC3CCN(C(=O)Nc4ccc(F)c(C(F)(F)F)c4)CC3)c3ncn(C4CCCC4)c3n2)CC1 [compound 203, dihydrochloride]
2. N[C@H]1CC[C@H](Nc2nc(NC3CCN(S(=O)(=O)c4ccc([N+](=O)[O-])cc4)CC3)c3ncn(C4CCCC4)c3n2)CC1 [compound 120, dihydrochloride]
3. CN1CC[C@H](c2c(O)cc(O)c3c(=O)cc(-c4ccccc4Cl)oc23)[C@H](O)C1 [Flavopiridol, flavopiridol, reference compound]
4. N[C@H]1CC[C@H](Nc2nc(NC3CCN(S(=O)(=O)c4ccc(C(F)(F)F)cc4[N+](=O)[O-])CC3)c3ncn(C4CCCC4)c3n2)CC1 [compound 132, dihydrochloride]

Output line:
[0.17, 0.1, 0.03, 0.04]

###

assay system: cdk1/cyclin B (Homo sapiens)
Sequence (P06493 whole entry): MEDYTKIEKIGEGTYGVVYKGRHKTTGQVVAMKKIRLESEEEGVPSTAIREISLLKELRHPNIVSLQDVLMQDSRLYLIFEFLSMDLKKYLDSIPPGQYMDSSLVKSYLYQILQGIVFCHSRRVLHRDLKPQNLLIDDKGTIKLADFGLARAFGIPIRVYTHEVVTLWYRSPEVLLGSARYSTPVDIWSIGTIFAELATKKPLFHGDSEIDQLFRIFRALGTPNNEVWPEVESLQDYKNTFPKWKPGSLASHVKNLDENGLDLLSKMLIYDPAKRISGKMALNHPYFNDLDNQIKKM
Sequence (P14635 whole entry partner): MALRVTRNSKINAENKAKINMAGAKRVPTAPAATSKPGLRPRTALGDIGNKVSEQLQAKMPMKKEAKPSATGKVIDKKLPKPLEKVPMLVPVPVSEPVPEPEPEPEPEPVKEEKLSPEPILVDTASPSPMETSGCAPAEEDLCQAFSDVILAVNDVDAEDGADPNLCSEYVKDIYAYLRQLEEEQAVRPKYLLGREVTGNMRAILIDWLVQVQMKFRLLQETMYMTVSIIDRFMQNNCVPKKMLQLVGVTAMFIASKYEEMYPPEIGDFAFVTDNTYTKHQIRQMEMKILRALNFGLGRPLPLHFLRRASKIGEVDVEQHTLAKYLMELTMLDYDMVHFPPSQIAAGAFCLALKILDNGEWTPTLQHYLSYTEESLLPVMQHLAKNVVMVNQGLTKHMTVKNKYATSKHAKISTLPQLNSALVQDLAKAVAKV
test description: Cyclin-dependent kinase assay, cdk1/cyclin B
condition description: CDK1 IC50, nM, Histone H1, 10 µM ATP
Where a name gives a salt, the structure may show the parent alone.
Returns: string. Value is 1.0 if measured IC50 is below 40 nM, and 0.0 if it is greater than or equal to it.

Cl.Cl.N#Cc1ccc(S(=O)(=O)N2CCC(Nc3nc(N[C@H]4CC[C@H](N)CC4)nc4c3ncn4C3CCCC3)CC2)cc1 [compound 109, dihydrochloride]
1.0
N[C@H]1CC[C@H](Nc2nc(NC3CCN(C(=O)Nc4ccccc4C(F)(F)F)CC3)c3ncn(C4CCCC4)c3n2)CC1 [compound 158, dihydrochloride]
0.0

Input line: # TODO verify IC50 < 40 nM strictly for this molecule: CCCCC(CC)C(=O)N1CCC(Nc2nc(N[C@H]3CC[C@H](N)CC3)nc3c2ncn3C2CCCC2)CC1 (mixture of isomers) [compound 57, dihydrochloride]
Output line: 0.0

Input line: Note, next up: CC(C)(C)CC(=O)N1CCC(Nc2nc(N[C@H]3CC[C@H](N)CC3)nc3c2ncn3C2CCCC2)CC1 [compound 51, dihydrochloride]
Output line: 0.0

###

System: Colo-205
test description: In vitro proliferation assay (MTT), Colo-205
Type: cell-based
condition description: Homo sapiens, COLO 205; MTT assay; value (SD, n) where given; read-out: Colo-205 Colon (IC50 µM)
Where a name gives a salt, the structure may show the parent alone.
Returns: string. Value is 1 if measured IC50 is below 0.1 µM, and 0 if it is greater than or equal to it.

Example cases with answers are listed next.
COc1ccc(C(=O)N2CCC(Nc3nc(N[C@H]4CC[C@H](N)CC4)nc4c3ncn4C3CCCC3)CC2)cc1 [compound 8, dihydrochloride]
1
N[C@H]1CC[C@H](Nc2nc(NC3CCN(C(=O)Nc4cc(C(F)(F)F)ccc4F)CC3)c3ncn(C4CCCC4)c3n2)CC1 [compound 200, dihydrochloride]
1
N[C@H]1CC[C@H](Nc2nc(NC3CCN(C(=O)Nc4ccccc4F)CC3)c3ncn(C4CCCC4)c3n2)CC1 [compound 207, dihydrochloride]
1
N[C@H]1CC[C@H](Nc2nc(NC3CCN(C(=O)Nc4cc(F)ccc4F)CC3)c3ncn(C4CCCC4)c3n2)CC1 [compound 180, dihydrochloride]
1
N[C@H]1CC[C@H](Nc2nc(NC3CCN(C(=O)Nc4ccc(Br)cc4)CC3)c3ncn(C4CCCC4)c3n2)CC1 [compound 162, dihydrochloride]
1

Input line: # TODO verify IC50 < 0.1 µM strictly for this compound: N[C@H]1CC[C@H](Nc2nc(NC3CCN(C(=O)Nc4ccc(Cl)cc4)CC3)c3ncn(C4CCCC4)c3n2)CC1 [compound 150, dihydrochloride]
Output line: 1

Input line: Note, next up: Cl.Cl.N[C@H]1CC[C@H](Nc2nc(NC3CCN(S(=O)(=O)c4ccc(F)cc4)CC3)c3ncn(C4CCCC4)c3n2)CC1 [compound 106, dihydrochloride]
Output line: 0

Input line: Note, next up: C=CCCOC(=O)N1CCC(Nc2nc(N[C@H]3CC[C@H](N)CC3)nc3c2ncn3C2CCCC2)CC1 [compound 100, dihydrochloride]
Output line: 0

Input line: Note, next up: N[C@H]1CC[C@H](Nc2nc(NC3CCN(C(=O)CCc4ccccc4)CC3)c3ncn(C4CCCC4)c3n2)CC1 [compound 33, dihydrochloride]
Output line: 1

Input line: Note, next up: COC(=O)c1ccccc1S(=O)(=O)N1CCC(Nc2nc(N[C@H]3CC[C@H](N)CC3)nc3c2ncn3C2CCCC2)CC1.Cl.Cl [compound 111, dihydrochloride]
Output line: 1

Input line: Note, next up: N[C@H]1CC[C@H](Nc2nc(NC3CCN(C(=O)Nc4ccccc4-c4ccccc4)CC3)c3ncn(C4CCCC4)c3n2)CC1 [compound 187, dihydrochloride]
Output line: 0
